The reported numbers originate from ChEMBL document CHEMBL3227938.

test: Octanol-phosphate buffer partition coefficient, log P of the compound at pH 11.5; format: physicochemical
readout.kind: logD
The answer should be a number; do not append a unit.

Query: Find the recorded logD belonging to CCCCCCOC(=N)NC(=N)Nc1ccc(Cl)cc1 and report it.
Response: 4.32

Query: Find the recorded logD belonging to CCCCC(CC)CNC(=N)NC(=N)Nc1ccc(C)cc1 (stereo not drawn) and report it.
Response: 4.73

Query: Find the recorded logD belonging to CCCCCCS(=O)(=O)c1ccc(NC(=N)NC(=N)NCCCCCCNC(=N)NC(=N)Nc2ccc(S(=O)(=O)CCCCCC)cc2)cc1 and report it.
Response: 5.1
